Literature roundup of PIP4K2B (Homo sapiens, UniProt P78356) data, read-out pIC50.
pIC50: −log10 of the molar value.

Known pIC50 results, listed for orientation:
# pIC50 lookup, item "Cc1c2n(c3nccc(-c4cncc(-c5ccc(-c6nncn6C6CCC6)cc5)c4)c13)CCN(c1ccccn1)C2=O"
6.00 to 7.00

# pIC50 lookup, item "O=C(NCc1ccccn1)c1cc2c(-c3cncc(-c4ccc(N5CCCC5=O)cc4)c3)ccnc2[nH]1"
7.00 to 8.00

# pIC50 lookup, item "CN(C)C(=O)c1ccc(-c2ccc(Nc3cnc4c(c3)N(C(=O)c3ccccn3)CCO4)nc2)cc1"
7.00 to 8.00

Next:
# pIC50 lookup, item "CN(C)C(=O)c1ccc(-c2cc(-c3ccnc4cc(N(C)C)ccc34)cnc2N)nc1"
6.00 to 7.00

# pIC50 lookup, item "CN(C)C(=O)c1ccc(-c2cc(-c3ccnc4[nH]ccc34)cnc2N)nc1"
6.00 to 7.00

# pIC50 lookup, item "COCCC(=O)N1CCN(c2cncc(Nc3cc4c(cn3)-c3ccc(N5CCCC5=O)cc3OC4)c2)CC1"
7.00 to 8.00

# pIC50 lookup, item "COC(=O)N1CCOc2ncc(Nc3ccc(-c4ccc(N5CCCC5=O)cc4)cn3)cc21"
7.00 to 8.00

# pIC50 lookup, item "C[C@@H]1CCC(=O)N1c1ccc2c(c1)OC(C)(C)c1nc(Nc3cnc4c(c3)N(C(=O)CN(C)C)CCO4)ncc1-2"
8.00 to 9.00

# pIC50 lookup, item "CN1CCn2c(cc3c(-c4cncc(-c5ccc(N6CCC(C)(C)CC6=O)cc5)c4)ccnc32)C1=O"
6.00 to 7.00

# pIC50 lookup, item "CC(C)c1cnoc1-c1ccc(-c2cncc(-c3ccnc4c3cc3n4CCN(C)C3=O)c2)cc1"
7.00 to 8.00

# pIC50 lookup, item "CN1CC2(CCN(c3ccc(Nc4cnc5c(c4)N4C(=O)CC[C@H]4CO5)nc3)CC2)OC1=O"
< 6.00

# pIC50 lookup, item CC1Oc2cc(N3CCCC3=O)ccc2-c2cnc(Nc3cnc4c(c3)N3C(=O)C(C)(C)C[C@H]3CO4)cc21 (stereo partly drawn)
8.00 to 9.00

# pIC50 lookup, item "CN(C)C/C=C/C(=O)Nc1ccc(C(=O)Nc2cncc(Nc3cc4c(cn3)-c3ccc(N5CCCC5=O)cc3OC4(C)C)c2)cc1"
8.00 to 9.00

# pIC50 lookup, item CC1Oc2cc(N3CCCC3=O)ccc2-c2cnc(Nc3cncc(NC(=O)C4CCCO4)c3)cc21 (stereo not drawn)
7.00 to 8.00

# pIC50 lookup, item CC1Oc2cc(N3CCCC3=O)ccc2-c2cnc(Nc3cncc(N4CCOCC4=O)c3)cc21 (stereo not drawn)
6.00 to 7.00

---

pIC50: −log10 of the molar value.
Literature roundup of PIP4K2B (Homo sapiens, UniProt P78356) data, read-out pIC50.

Known pIC50 results, listed for orientation:
Item: CN(C)C(=O)c1ccc2c(c1)OC(C1CC1)c1cc(Nc3cncc(N4CCCC4=O)c3)ncc1-2 (stereo not shown) Test system: PIP4K2B (Homo sapiens, UniProt P78356) Read-out: pIC50 Value: ?
8.00 to 9.00

Item: CC1Oc2cc(N3CCCC3=O)ccc2-c2cnc(Nc3cncc(NC(=O)c4cccc5[nH]cnc45)c3)cc21 (stereo not shown) Test system: PIP4K2B (Homo sapiens, UniProt P78356) Read-out: pIC50 Value: ?
7.00 to 8.00

Item: "CN(C)C(=O)c1cnc2c(c1)c(-c1cncc(-c3ccc(N4CCCC4=O)cc3)c1)c(C1CC1)n2C" Test system: PIP4K2B (Homo sapiens, UniProt P78356) Read-out: pIC50 Value: ?
6.00 to 7.00

Next:
Item: "Cc1ccnnc1-c1ccc(-c2ccc(Nc3cnc4c(c3)N3C(=O)CC[C@H]3CO4)nc2)cc1" Test system: PIP4K2B (Homo sapiens, UniProt P78356) Read-out: pIC50 Value: ?
8.00 to 9.00

Item: "COC(=O)c1cc2c(-c3cncc(-c4ccc(N5CCCC5=O)cc4)c3)ccnc2o1" Test system: PIP4K2B (Homo sapiens, UniProt P78356) Read-out: pIC50 Value: ?
7.00 to 8.00

Item: "C=C(C)c1cc(Nc2cnc3c(c2)N2C(=O)CC[C@H]2CO3)ncc1-c1ccc(-c2nncn2C)cc1" Test system: PIP4K2B (Homo sapiens, UniProt P78356) Read-out: pIC50 Value: ?
8.00 to 9.00

Item: "COC(=O)c1cc2c(-c3cncc(-c4ccc(N5CCCC5=O)cc4)c3)c(C)cnc2[nH]1" Test system: PIP4K2B (Homo sapiens, UniProt P78356) Read-out: pIC50 Value: ?
6.00 to 7.00
